Target: Alpha-1D adrenergic receptor (Homo sapiens)
Experiment: Agonist activity at human adrenergic Alpha-1D receptor expressed in CHO cells assessed as calcium mobilization by FLIPR relative to 10 uM phenylephrine
Type: functional, cell-based
assay_readout: Emax (%)
Write the answer as a number in %, unit excluded.

molecule	Emax [%]
c1ccc(-c2ccccc2[C@@H]2Cc3nccn3C2)cc1	51
Fc1ccc(-c2ncco2)c(C2Cc3nccn3C2)c1 (centres undefined)	49
Fc1ccc(C2Cc3nccn3C2)c(-c2ccn[nH]2)c1 (centres undefined)	51

Okay, now this molecule:
Measured Emax, "c1ccc([C@@H]2Cc3nccn3C2)c(-c2ncco2)c1" : 49

---

Experiment: Intrinsic clearance in human liver microsomes
Type: ADME, Microsome
assay_readout: microsomal CLint

molecule	microsomal CLint
c1ccc([C@@H]2Cc3nccn3C2)c(-c2cncnc2)c1	< 8 µL/min/mg

Let's switch to this molecule now.
Lab book: microsomal CLint of Fc1ccc(C2Cc3nccn3C2)c(-c2cncnc2)c1 (stereo not drawn) noted as < 8 µL/min/mg
